Biological target: canine FcRn complex (FcRn-alpha subunit and beta-microglobulin), His-tagged, biotin labeled (canine)
Assay: SPR (Biacore), biotin-FcRn captured on SA surface, IgG flowed over, pH 6, 15 C
parameter-measured: Kd (nM)
The answer is to be given in nM; state only the numeric part.

binder	data-value
canine IgGB (65) mAb with mutation A426T (antibody, part only; not given: variable domains of unnamed mAb, not shown: another chain or arm of the molecule) constant: ASTTAPSVFPLAPSCGSTSGSTVALACLVSGYFPEPVTVSWNSGSLTSGVHTFPSVLQSSGLYSLSSMVTVPSSRWPSETFTCNVAHPASKTKVDKPVPKRENGRVPRPPDCPKCPAPEMLGGPSVFIFPPKPKDTLLIARTPEVTCVVVDLDPEDPEVQISWFVDGKQMQTAKTQPREEQFNGTYRVVSVLPIGHQDWLKGKQFTCKVNNKALPSPIERTISKARGQAHQPSVYVLPPSREELSKNTVSLTCLIKDFFPPDIDVEWQSNGQQEPESKYRTTPPQLDEDGSYFLYSKLSVDKSRWQRGDTFICTVMHEALHNHYTQESLSHSPGK	8.72
canine IgGB (65) mAb with mutation T286I (antibody, part only; not given: Variable domains, not shown: another chain or arm of the molecule) constant: ASTTAPSVFPLAPSCGSTSGSTVALACLVSGYFPEPVTVSWNSGSLTSGVHTFPSVLQSSGLYSLSSMVTVPSSRWPSETFTCNVAHPASKTKVDKPVPKRENGRVPRPPDCPKCPAPEMLGGPSVFIFPPKPKDTLLIARTPEVTCVVVDLDPEDPEVQISWFVDGKQMQIAKTQPREEQFNGTYRVVSVLPIGHQDWLKGKQFTCKVNNKALPSPIERTISKARGQAHQPSVYVLPPSREELSKNTVSLTCLIKDFFPPDIDVEWQSNGQQEPESKYRTTPPQLDEDGSYFLYSKLSVDKSRWQRGDTFICAVMHEALHNHYTQESLSHSPGK	6.38
canine IgGB (65) mAb with mutation T286P (antibody, part only; not given: Variable domains, not shown: another chain or arm of the molecule) constant: ASTTAPSVFPLAPSCGSTSGSTVALACLVSGYFPEPVTVSWNSGSLTSGVHTFPSVLQSSGLYSLSSMVTVPSSRWPSETFTCNVAHPASKTKVDKPVPKRENGRVPRPPDCPKCPAPEMLGGPSVFIFPPKPKDTLLIARTPEVTCVVVDLDPEDPEVQISWFVDGKQMQPAKTQPREEQFNGTYRVVSVLPIGHQDWLKGKQFTCKVNNKALPSPIERTISKARGQAHQPSVYVLPPSREELSKNTVSLTCLIKDFFPPDIDVEWQSNGQQEPESKYRTTPPQLDEDGSYFLYSKLSVDKSRWQRGDTFICAVMHEALHNHYTQESLSHSPGK	6.73

Here is another binder to look at.
// query Specify reported Kd for the binder shown: canine IgGB (65) mAb with mutation D312C (antibody, part only; not given: variable domains of unnamed mAb, not shown: another chain or arm of the molecule) constant: ASTTAPSVFPLAPSCGSTSGSTVALACLVSGYFPEPVTVSWNSGSLTSGVHTFPSVLQSSGLYSLSSMVTVPSSRWPSETFTCNVAHPASKTKVDKPVPKRENGRVPRPPDCPKCPAPEMLGGPSVFIFPPKPKDTLLIARTPEVTCVVVDLDPEDPEVQISWFVDGKQMQTAKTQPREEQFNGTYRVVSVLPIGHQCWLKGKQFTCKVNNKALPSPIERTISKARGQAHQPSVYVLPPSREELSKNTVSLTCLIKDFFPPDIDVEWQSNGQQEPESKYRTTPPQLDEDGSYFLYSKLSVDKSRWQRGDTFICAVMHEALHNHYTQESLSHSPGK
// result 19

Hello, the source for this data is patent US20260139055A1, in case you need it.
